This section presents variants with their documented self-cleavage values.
B1: HDV Ribozyme (parent)
chain: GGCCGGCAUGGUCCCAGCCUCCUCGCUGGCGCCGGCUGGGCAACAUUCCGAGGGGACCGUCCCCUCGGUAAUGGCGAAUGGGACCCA

Variants of: B1
Assay: self-cleavage, relative activity (ratio to wild type); higher = more cleavage; co-transcriptional
I'd appreciate a reply containing only the number, no unit.

G29U A87U
0.111

Then this variant:
Name the recorded self-cleavage for G2C C48A .
0
